Where do the numbers come from? From PubChem BioAssay (NCI).

system: SNB-19 CNS; assay: NCI-60 one-dose screen, 48 h (100 = growth as untreated, 0 = no growth, -100 = all killed); conditions: 10 µM unless noted
The panel holds about 83,000 compounds, 20% with a hit somewhere; the sample as a whole holds those more often.
Parameter growth: see the listing below.
readoutType: growth (%)

INSERT INTO results (compoundsmiles, target, reading) VALUES
  ('COc1ccc(OC)c([C@H]2c3[nH]c4ccccc4c3C[C@H]3C(=O)N(CCCCCCC(=O)NO)CC(=O)N23)c1', 'SNB-19 CNS', 86.9),
  ('Cc1ccc(NC(=O)c2cccc(CN3CCN(C)CC3)c2)cc1Oc1ccc(-c2[nH]nc3ncnc(N)c23)cc1', 'SNB-19 CNS', 81.9),
  ('CCOP(=O)(OCC)OC[C@]12CCC(C)(C)C[C@H]1C1=CC[C@@H]3[C@@]4(C)C/C(=C\c5cccnc5)[C@H](OP(=O)(OCC)OCC)C(C)(C)[C@@H]4CC[C@@]3(C)[C@]1(C)CC2', 'SNB-19 CNS', 40),
  ('CN(C)C(=O)c1ccccc1-n1cnc2ccccc2c1=O', 'SNB-19 CNS', 95.2);
